The reported numbers originate from patent US20080004253A1.

Target: UniProt Q8NER1
Experiment: Functional assay: block of capsaicin-induced Ca2+ influx, human assay (hTRPV1/HEK293, FLIPR)
Conditions: hTRPV1/HEK293 cells, 150 nM capsaicin challenge, Fluo-3 fluorescence; mean; > value = solubility limit in assay medium
pIC50: −log10 of the molar value.
Measured pIC50 of individual entries

Reference set (3 entries):
| Compound | Tested Target | Parameter Measured | Assay Result |
| --- | --- | --- | --- |
| Cc1cccc(C)c1Nc1nc2c(Nc3ccc(C(=O)O)cc3)ncnc2s1 [Example 172] | UniProt Q8NER1 | pIC50 | < 4.70 |
| COc1ccc(Nc2ncnc3sc(Nc4c(C)cccc4C)nc23)cc1C(F)(F)F [Example 168] | UniProt Q8NER1 | pIC50 | < 5.18 |
| FC(F)(F)c1ccc(Nc2ncnc3sc(Nc4ccccc4)nc23)cc1 [Example 20] | UniProt Q8NER1 | pIC50 | < 5.18 |

# ---- query compound ----
**Q:** // Input: Cc1ccc(CNc2ncnc3sc(Nc4c(C)cccc4C)nc23)o1 [Example 47] . Output its pIC50 only.
**A:** < 5.18

----------
Molecular target: rat TRPV1 (Rattus norvegicus)
Sequence (O35433 whole entry): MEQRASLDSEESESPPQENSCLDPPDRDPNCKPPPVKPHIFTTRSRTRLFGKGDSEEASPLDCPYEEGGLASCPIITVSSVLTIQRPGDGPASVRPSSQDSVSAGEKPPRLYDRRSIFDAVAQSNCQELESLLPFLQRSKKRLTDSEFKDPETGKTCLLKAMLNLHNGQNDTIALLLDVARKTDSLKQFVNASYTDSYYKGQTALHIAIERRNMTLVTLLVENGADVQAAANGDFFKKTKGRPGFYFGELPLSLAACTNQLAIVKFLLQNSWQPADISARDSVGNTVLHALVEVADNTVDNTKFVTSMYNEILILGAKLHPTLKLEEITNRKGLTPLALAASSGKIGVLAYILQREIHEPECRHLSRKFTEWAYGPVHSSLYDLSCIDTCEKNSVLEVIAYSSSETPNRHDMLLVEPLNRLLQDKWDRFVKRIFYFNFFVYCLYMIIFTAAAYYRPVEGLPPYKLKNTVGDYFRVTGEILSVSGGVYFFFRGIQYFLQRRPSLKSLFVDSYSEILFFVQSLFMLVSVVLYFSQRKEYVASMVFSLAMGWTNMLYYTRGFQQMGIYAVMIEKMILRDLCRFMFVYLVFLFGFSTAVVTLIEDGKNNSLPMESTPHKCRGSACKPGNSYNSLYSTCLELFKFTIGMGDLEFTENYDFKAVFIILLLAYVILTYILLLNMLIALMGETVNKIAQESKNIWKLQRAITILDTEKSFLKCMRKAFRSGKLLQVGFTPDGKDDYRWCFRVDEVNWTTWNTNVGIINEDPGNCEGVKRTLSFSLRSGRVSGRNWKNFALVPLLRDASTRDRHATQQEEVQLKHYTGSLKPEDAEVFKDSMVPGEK
Assay: Functional assay: block of capsaicin-induced Ca2+ influx, rat assay (rTRPV1/HEK293, FLIPR)
Settings: rTRPV1/HEK293 cells, capsaicin challenge, Fluo-3 fluorescence; mean; > value = solubility limit in assay medium
Parameter Measured: IC50

Reference set (3 entries):
| Smiles Structure | IC50 |
| --- | --- |
| COc1ccc(Nc2ncnc3sc(Nc4c(C)cccc4C)nc23)cc1C(F)(F)F | > 6.67 µM |
| Cc1cccc(C)c1Nc1nc2c(Nc3ccc(C(=O)O)cc3)ncnc2s1 | > 20 µM |
| Cc1cccc(C)c1Nc1nc2c(Nc3ccccc3C(F)(F)F)ncnc2s1 | > 6.67 µM |

# ---- query compound ----
**Q:** // Input: `Cc1cccc(C)c1Nc1nc2c(NCc3ccc(Cl)c(Cl)c3)ncnc2s1` . Output its IC50 only.
**A:** > 6.67 µM

----------
Biological target: human TRPV1 (Homo sapiens, UniProt Q8NER1)
Sequence (Q8NER1 whole entry): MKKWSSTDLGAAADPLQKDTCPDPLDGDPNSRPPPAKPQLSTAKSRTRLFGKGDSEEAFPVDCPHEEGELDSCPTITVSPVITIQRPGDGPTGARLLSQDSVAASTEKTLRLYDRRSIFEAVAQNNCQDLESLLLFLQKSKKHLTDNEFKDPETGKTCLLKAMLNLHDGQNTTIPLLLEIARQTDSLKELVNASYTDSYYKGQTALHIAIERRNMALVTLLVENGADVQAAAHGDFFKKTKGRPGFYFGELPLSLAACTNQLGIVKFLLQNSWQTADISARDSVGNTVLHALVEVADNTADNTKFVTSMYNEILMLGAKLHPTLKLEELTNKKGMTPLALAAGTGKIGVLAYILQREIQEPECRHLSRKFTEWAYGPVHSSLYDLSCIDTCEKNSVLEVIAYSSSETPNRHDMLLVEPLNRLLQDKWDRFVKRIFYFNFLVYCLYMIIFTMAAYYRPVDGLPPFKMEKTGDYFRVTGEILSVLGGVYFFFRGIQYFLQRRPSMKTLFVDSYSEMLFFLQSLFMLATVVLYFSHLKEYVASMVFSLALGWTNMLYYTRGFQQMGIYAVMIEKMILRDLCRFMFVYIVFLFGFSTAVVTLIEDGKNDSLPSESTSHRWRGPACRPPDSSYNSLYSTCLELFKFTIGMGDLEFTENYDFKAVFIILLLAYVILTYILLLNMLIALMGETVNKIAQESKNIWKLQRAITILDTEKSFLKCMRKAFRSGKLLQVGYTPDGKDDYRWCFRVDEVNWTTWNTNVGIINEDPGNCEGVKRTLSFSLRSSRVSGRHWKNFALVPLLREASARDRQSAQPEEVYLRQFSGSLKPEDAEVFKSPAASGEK
Test: Functional assay: block of capsaicin-induced Ca2+ influx, human assay (hTRPV1/HEK293, FLIPR)
Conditions: hTRPV1/HEK293 cells, 150 nM capsaicin challenge, Fluo-3 fluorescence; mean; > value = solubility limit in assay medium
Parameter Measured: IC50 (nM)

A. FC(F)(F)c1ccc(Nc2ncnc3sc(Nc4c(Cl)cccc4Cl)nc23)cc1Cl [Example 4]
B. Cc1nc(Nc2ccc([S+](C)[O-])cc2)c2nc(Nc3c(C)cccc3C)sc2n1 (racemic) [Example 143]
C. CS(=O)(=O)c1ccc(Nc2ncnc3sc(Nc4ccccc4S(C)(=O)=O)nc23)cc1 [Example 198]
D. Cc1cccc(C)c1Nc1nc2c(Nc3ccc(C(F)(F)F)c(F)c3)ncnc2s1 [Example 108]
**Q:** Reorder the list above by recorded IC50 in ascending order. Output spec: a listing of the labels in the requested order.
**A:** A, D, B, C
(A: 15 nM, D: 26 nM, B: 423 nM, C: 9740 nM)
